Tested on: MDA-MB-231
protocol description: relative cell viability, compound + RSL3, vs DMSO (fraction of DMSO control); higher = less growth inhibition
conditions used: 72 h
Could you mark each record true (1) if its relative cell viability falls strictly under 0.6, and false (0) if it equals or exceeds it?

{"columns": ["compound", "answer label"],
 "data": [
  ["O=C(CC(C(=O)O)c1c[nH]c2ccccc12)c1ccc(F)cc1F (configuration not stated) [Mitochonic acid 5] + COC(=O)c1ccc([C@H]2c3[nH]c4ccccc4c3C[C@H](C(=O)OC)N2C(=O)CCl)cc1", "false (0)"],
  ["Fc1ccc(-c2c3cccc(C(F)(F)F)c3nn2Cc2ccc(F)cc2Cl)cc1 + COC(=O)c1ccc([C@H]2c3[nH]c4ccccc4c3C[C@H](C(=O)OC)N2C(=O)CCl)cc1", "true (1)"],
  ["C=C(C)[C@@H]1CC[C@]2(C)CC[C@]3(C)[C@H](CC[C@@H]4[C@@]5(C)CCC(=O)C(C)(C)[C@@H]5CC[C@]43C)[C@@H]12 + COC(=O)c1ccc([C@H]2c3[nH]c4ccccc4c3C[C@H](C(=O)OC)N2C(=O)CCl)cc1", "false (0)"],
  ["CCCCCCCCCCCCCCCC(=O)NCCO [Palmidrol] + COC(=O)c1ccc([C@H]2c3[nH]c4ccccc4c3C[C@H](C(=O)OC)N2C(=O)CCl)cc1", "false (0)"],
  ["CCCCCCCCCCCC1=C(O)C(=O)C=C(O)C1=O [Embelin] + COC(=O)c1ccc([C@H]2c3[nH]c4ccccc4c3C[C@H](C(=O)OC)N2C(=O)CCl)cc1", "true (1)"],
  ["Cc1ccc(CN(CC(O)COc2cccc3[nH]ccc23)C(C)(C)C)cc1 (configuration not stated) + COC(=O)c1ccc([C@H]2c3[nH]c4ccccc4c3C[C@H](C(=O)OC)N2C(=O)CCl)cc1", "false (0)"]
]}

====

Each record here notes measured relative cell viability.
System: HCC1937
protocol description: relative cell viability, compound + RSL3, vs DMSO (fraction of DMSO control); higher = less growth inhibition
conditions used: 72 h

{"columns": ["molecule", "relative cell viability"],
 "data": [
  ["Cc1cc(C)c(S(=O)(=O)Nc2cccc(C(F)(F)F)c2)c(C)c1 + COC(=O)c1ccc([C@H]2c3[nH]c4ccccc4c3C[C@H](C(=O)OC)N2C(=O)CCl)cc1 [RSL3]", 0.504],
  ["CC(C)(C)NC(=O)[C@H]1CC[C@H]2[C@@H]3CC[C@H]4NC(=O)C=C[C@]4(C)[C@H]3CC[C@]12C [Finasteride] + COC(=O)c1ccc([C@H]2c3[nH]c4ccccc4c3C[C@H](C(=O)OC)N2C(=O)CCl)cc1 [RSL3]", 0.885],
  ["O=S(=O)(O)c1ccc2cc(N=Nc3cc(S(=O)(=O)O)c4cccnc4c3O)ccc2c1 + COC(=O)c1ccc([C@H]2c3[nH]c4ccccc4c3C[C@H](C(=O)OC)N2C(=O)CCl)cc1 [RSL3]", 0.511],
  ["COc1ccc(N(C(=O)Nc2c(C)cccc2C)c2cc(Nc3ccc(N4CCN(C)CC4)cc3)ncn2)c(OC)c1 + COC(=O)c1ccc([C@H]2c3[nH]c4ccccc4c3C[C@H](C(=O)OC)N2C(=O)CCl)cc1 [RSL3]", 0.624],
  ["CC(C)[C@H]1CC[C@H](C(=O)N[C@H](Cc2ccccc2)C(=O)O)CC1 [Nateglinide] + COC(=O)c1ccc([C@H]2c3[nH]c4ccccc4c3C[C@H](C(=O)OC)N2C(=O)CCl)cc1 [RSL3]", 0.594],
  ["O=C(O)c1ccnc(N2CC(O)(c3ccc(OCc4c(-c5c(Cl)cccc5Cl)noc4C4CC4)cc3Cl)C2)c1 [Cilofexor] + COC(=O)c1ccc([C@H]2c3[nH]c4ccccc4c3C[C@H](C(=O)OC)N2C(=O)CCl)cc1 [RSL3]", 0.368],
  ["CC(C)c1nc(N(C)S(C)(=O)=O)nc(-c2ccc(F)cc2)c1/C=C/[C@@H](O)C[C@@H](O)CC(=O)O [Rosuvastatin] + COC(=O)c1ccc([C@H]2c3[nH]c4ccccc4c3C[C@H](C(=O)OC)N2C(=O)CCl)cc1 [RSL3]", 0.54],
  ["CCCCCCCCCCCCC/C=C/[C@@H](O)[C@@H](N)CO + COC(=O)c1ccc([C@H]2c3[nH]c4ccccc4c3C[C@H](C(=O)OC)N2C(=O)CCl)cc1 [RSL3]", 0.0823],
  ["O=C(CC(C(=O)O)c1c[nH]c2ccccc12)c1ccc(F)cc1F (stereo not given) [Mitochonic acid 5] + COC(=O)c1ccc([C@H]2c3[nH]c4ccccc4c3C[C@H](C(=O)OC)N2C(=O)CCl)cc1 [RSL3]", 0.636],
  ["CCN(CC)Cc1ccc(C(=O)N(CCc2ccccc2OC)[C@@H]2CCNC2)cc1 + COC(=O)c1ccc([C@H]2c3[nH]c4ccccc4c3C[C@H](C(=O)OC)N2C(=O)CCl)cc1 [RSL3]", 0.666]
]}

====

Tested on: HCC1937
protocol description: relative cell viability, compound + RSL3, vs DMSO (fraction of DMSO control); higher = less growth inhibition
conditions used: 72 h
Each record here notes measured relative cell viability.

{"columns": ["compound", "relative cell viability"],
 "data": [
  ["CC(C)(C)N1C(=O)C(Nc2ccc(N3CCCCC3)cc2)=C(c2ccccc2)S1(=O)=O + COC(=O)c1ccc([C@H]2c3[nH]c4ccccc4c3C[C@H](C(=O)OC)N2C(=O)CCl)cc1", 0.686],
  ["O=c1oc2ccccc2cc1O [3-Hydroxycoumarin] + COC(=O)c1ccc([C@H]2c3[nH]c4ccccc4c3C[C@H](C(=O)OC)N2C(=O)CCl)cc1", 0.587],
  ["COCCNC(=O)Nc1ccc2nc(-c3cccs3)c(-c3cccs3)nc2c1 [Ac-CoA Synthase Inhibitor1] + COC(=O)c1ccc([C@H]2c3[nH]c4ccccc4c3C[C@H](C(=O)OC)N2C(=O)CCl)cc1", 0.594],
  ["COc1cc(F)c(C(C)C)cc1-c1ccc(C(F)(F)F)cc1CN1C(=O)O[C@H](c2cc(C(F)(F)F)cc(C(F)(F)F)c2)[C@@H]1C [Anacetrapib] + COC(=O)c1ccc([C@H]2c3[nH]c4ccccc4c3C[C@H](C(=O)OC)N2C(=O)CCl)cc1", 0.622],
  ["Nn1nnc2ccccc21 [1-Aminobenzotriazole] + COC(=O)c1ccc([C@H]2c3[nH]c4ccccc4c3C[C@H](C(=O)OC)N2C(=O)CCl)cc1", 0.528]
]}

====

Test system: MDA-MB-231
protocol description: relative cell viability, compound alone, vs DMSO (fraction of DMSO control); higher = less growth inhibition
conditions used: 72 h
quantity measured: relative cell viability

{"columns": ["molecule", "reported"],
 "data": [
  ["CC(C)(Oc1ccc(C2CC2(Cl)Cl)cc1)C(=O)O (centres undefined) [Ciprofibrate]", 0.937],
  ["C=C(C)[C@@H]1CC[C@]2(CO)CC[C@]3(C)[C@H](CC[C@@H]4[C@@]5(C)CC[C@H](O)C(C)(C)[C@@H]5CC[C@]43C)[C@@H]12 [Betulin]", 0.907],
  ["Cc1cc(C)c(S(=O)(=O)Nc2cccc(C(F)(F)F)c2)c(C)c1", 1.18],
  ["O=C(OC(C(F)(F)F)C(F)(F)F)N1CCN(Cc2ccc(C(F)(F)F)cc2N2CCCC2)CC1", 1.01]
]}

====

Tested on: MDA-MB-231
protocol description: relative cell viability, compound + RSL3, vs DMSO (fraction of DMSO control); higher = less growth inhibition
conditions used: 72 h
quantity measured: relative cell viability

{"columns": ["molecule", "reported"],
 "data": [
  ["O=c1oc2ccccc2cc1O [3-Hydroxycoumarin] + COC(=O)c1ccc([C@H]2c3[nH]c4ccccc4c3C[C@H](C(=O)OC)N2C(=O)CCl)cc1", 0.682],
  ["O=c1ccc2cc(O)c(O)cc2o1 [Esculetin] + COC(=O)c1ccc([C@H]2c3[nH]c4ccccc4c3C[C@H](C(=O)OC)N2C(=O)CCl)cc1", 0.497],
  ["Cc1cc(=O)oc2c(O)c(O)ccc12 [7,8-Dihydroxy-4-methylcoumarin] + COC(=O)c1ccc([C@H]2c3[nH]c4ccccc4c3C[C@H](C(=O)OC)N2C(=O)CCl)cc1", 0.7]
]}

====

Each record here notes measured relative cell viability.
System: HCC1937
protocol description: relative cell viability, compound + RSL3, vs DMSO (fraction of DMSO control); higher = less growth inhibition
conditions used: 72 h

{"columns": ["compound", "target under test", "relative cell viability"],
 "data": [
  ["C[C@@H]1OCC2(CCN(c3cnc(Sc4ccnc(N)c4Cl)c(N)n3)CC2)[C@@H]1N + COC(=O)c1ccc([C@H]2c3[nH]c4ccccc4c3C[C@H](C(=O)OC)N2C(=O)CCl)cc1", "HCC1937", 0.378],
  ["COc1cc(C(C)=O)ccc1O [Acetovanillone] + COC(=O)c1ccc([C@H]2c3[nH]c4ccccc4c3C[C@H](C(=O)OC)N2C(=O)CCl)cc1", "HCC1937", 0.389],
  ["CCCc1c(OCCCOc2ccc(OCC(=O)O)cc2)ccc(C(C)=O)c1O + COC(=O)c1ccc([C@H]2c3[nH]c4ccccc4c3C[C@H](C(=O)OC)N2C(=O)CCl)cc1", "HCC1937", 0.556],
  ["C=C1C[C@]2(O)O[C@@]3(CC2=C(C)C)[C@@H](C)CC[C@@H]13 [Isocurcumenol] + COC(=O)c1ccc([C@H]2c3[nH]c4ccccc4c3C[C@H](C(=O)OC)N2C(=O)CCl)cc1", "HCC1937", 0.612],
  ["NC(CO)C(=O)O (racemic) [DL-Serine] + COC(=O)c1ccc([C@H]2c3[nH]c4ccccc4c3C[C@H](C(=O)OC)N2C(=O)CCl)cc1", "HCC1937", 0.399],
  ["Cn1c2cc([S+](C)[O-])sc2c2cnn(Cc3cccc(N)c3)c(=O)c21 (stereo not given) + COC(=O)c1ccc([C@H]2c3[nH]c4ccccc4c3C[C@H](C(=O)OC)N2C(=O)CCl)cc1", "HCC1937", 0.402],
  ["Cc1cc(N2C[C@@H](C)N[C@@H](C)C2)ncc1-c1ccc(-c2nc3c(ccn3C)c(=O)[nH]2)cc1 + COC(=O)c1ccc([C@H]2c3[nH]c4ccccc4c3C[C@H](C(=O)OC)N2C(=O)CCl)cc1", "HCC1937", 0.496],
  ["CCCCCCCCCc1ccc(B(O)O)cc1 [4-Nonylphenylboronic acid] + COC(=O)c1ccc([C@H]2c3[nH]c4ccccc4c3C[C@H](C(=O)OC)N2C(=O)CCl)cc1", "HCC1937", 0.546],
  ["CS(=O)(=O)c1ccc(-c2nnc(/C=C/c3nnc(-c4ccc(C#N)cc4)o3)n2-c2ccccc2Cl)nc1 + COC(=O)c1ccc([C@H]2c3[nH]c4ccccc4c3C[C@H](C(=O)OC)N2C(=O)CCl)cc1", "HCC1937", 0.508],
  ["CC(C)(Oc1ccc(CCNC(=O)c2ccc(Cl)cc2)cc1)C(=O)O [Bezafibrate] + COC(=O)c1ccc([C@H]2c3[nH]c4ccccc4c3C[C@H](C(=O)OC)N2C(=O)CCl)cc1", "HCC1937", 0.594],
  ["c1cc(-c2cnn3cc(-c4ccc(OCCN5CCCCC5)cc4)cnc23)ccn1 [Dorsomorphin] + COC(=O)c1ccc([C@H]2c3[nH]c4ccccc4c3C[C@H](C(=O)OC)N2C(=O)CCl)cc1 [RSL3]", "HCC1937", 0.123],
  ["O=C(NNc1ccccc1)c1ccncc1 [PluriSln 1] + COC(=O)c1ccc([C@H]2c3[nH]c4ccccc4c3C[C@H](C(=O)OC)N2C(=O)CCl)cc1", "HCC1937", 0.418],
  ["O=S(=O)(c1ccccc1)N(CC(F)(F)F)c1ccc(C(O)(C(F)(F)F)C(F)(F)F)cc1 + COC(=O)c1ccc([C@H]2c3[nH]c4ccccc4c3C[C@H](C(=O)OC)N2C(=O)CCl)cc1", "HCC1937", 0.36],
  ["Cc1nc2c([nH]1)c(=O)n(C)c(=O)n2Cc1ccco1 [Furafylline] + COC(=O)c1ccc([C@H]2c3[nH]c4ccccc4c3C[C@H](C(=O)OC)N2C(=O)CCl)cc1", "HCC1937", 0.399],
  ["Cc1cc(SCc2sc(-c3ccc(C(F)(F)F)cc3)nc2C)ccc1OCC(=O)O + COC(=O)c1ccc([C@H]2c3[nH]c4ccccc4c3C[C@H](C(=O)OC)N2C(=O)CCl)cc1", "HCC1937", 0.339],
  ["CC(C)OC(=O)CCC/C=C\\C[C@@H]1[C@@H](CC[C@@H](O)CCc2ccccc2)[C@H](O)C[C@@H]1O [Latanoprost] + COC(=O)c1ccc([C@H]2c3[nH]c4ccccc4c3C[C@H](C(=O)OC)N2C(=O)CCl)cc1", "HCC1937", 1.03],
  ["O=C(CN1CCN(C(=O)c2ccco2)CC1)Nc1cc(C(F)(F)F)ccc1Cl + COC(=O)c1ccc([C@H]2c3[nH]c4ccccc4c3C[C@H](C(=O)OC)N2C(=O)CCl)cc1", "HCC1937", 0.268],
  ["N=C(N)NCCC(=O)O [3-Guanidinopropionic Acid] + COC(=O)c1ccc([C@H]2c3[nH]c4ccccc4c3C[C@H](C(=O)OC)N2C(=O)CCl)cc1", "HCC1937", 0.509],
  ["COc1cc(O)c2c(c1)O[C@H](c1ccc(O)cc1)CC2=O [Sakuranetin] + COC(=O)c1ccc([C@H]2c3[nH]c4ccccc4c3C[C@H](C(=O)OC)N2C(=O)CCl)cc1", "HCC1937", 0.362],
  ["CC(c1cc2ccccc2s1)N(O)C(N)=O (stereo not given) [Zileuton] + COC(=O)c1ccc([C@H]2c3[nH]c4ccccc4c3C[C@H](C(=O)OC)N2C(=O)CCl)cc1", "HCC1937", 0.895]
]}

All values here come from the supplement of paper PMC9492666.
